As shown below, each of these compounds has a reported Caco2 Papp (10^-6 cm/sec) value.
# Tested on: Caco-2 cells
# Protocol text: Membrane permeability test using Caco-2 cells with preincubation
# Format: in vitro ADME
# Conditions: Caco-2 cells, preincubation 20 to 24 hours; apical FaSSIF/HBSS 1% DMSO pH 6.0, basal HBSS 4% BSA pH 7.4; basal sample at 180 minutes
Starred links: 1 amine or outer side, 2 acyl side, 3 side chain; linkers in the order of their positions; H or OH if unused. Positions of bridges follow the written chain, without caps; N, C: chain ends. Non-standard residues stand in square brackets, D forms with d. Residues, ends and D or L forms follow the SMILES beside them. *: point of attachment. NMedβ3hAla = C[C@H](CC(=O)[*:2])N(C)[*:1]; NMeF = CN[C@@H](Cc1ccccc1)C(=O)O; NMeI = CC[C@H](C)[C@H](NC)C(=O)O; NMeT = CN[C@H](C(=O)O)[C@@H](C)O; hPhe = N[C@@H](CCc1ccccc1)C(=O)O; NMeβAla = CN(CCC(=O)[*:2])[*:1]; NMeL = CN[C@@H](CC(C)C)C(=O)O; NMeV = CN[C@H](C(=O)O)C(C)C; NMeA = CN[C@@H](C)C(=O)O; Piperidide = C1CCN(*)CC1; Abu = CC[C@H](N)C(=O)O; βAla = NCCC(=O)O; Sar = CNCC(=O)O; tBu = CC(C)(C)*

| Compound | Caco2 Papp (10^-6 cm/sec) |
| --- | --- |
| CC[C@@H]1NC(=O)[C@H](C)N(C)C(=O)[C@H](CC(C)C)N(C)C(=O)[C@H]([C@@H](C)O)N(C)C(=O)[C@H](CC(C)C)N(C)C(=O)CCNC(=O)[C@H](Cc2ccccc2)N(C)C(=O)CN(C)C(=O)C[C@@H](C(=O)N2CCCCC2)NC(=O)[C@H](C(C)C)N(C)C(=O)[C@H](C)N(C)C(=O)[C@@H]2CCCN2C(=O)[C@H](C(C)C)NC(=O)[C@H](Cc2ccccc2)N(C)C1=O [pd005] ([Sar][NMeF][βAla][NMeL][NMeT][NMeL][NMeA][Abu][NMeF]VP[NMeA][NMeV]D-Piperidide; lactam N-14) | 0.05 10^-6 cm/sec |
| CC[C@@H]1NC(=O)[C@H](CC(C)C)N(C)C(=O)[C@H](COC(C)(C)C)NC(=O)[C@H]([C@@H](C)CC)N(C)C(=O)[C@H](CCc2ccccc2)NC(=O)[C@H](Cc2ccccc2)N(C)C(=O)[C@H](C(C)C)NC(=O)[C@H](CC(C)C)N(C)C(=O)[C@H](CC(C)C)NC(=O)CCN(C)C(=O)C[C@@H](C)N(C)C(=O)CN(C)C(=O)[C@H](CC(C)C)N(C)C(=O)[C@@H]2CCCN2C1=O [pd065] (cyclo([Abu]P[NMeL][Sar][NMedβ3hAla][NMeβAla]L[NMeL]V[NMeF][hPhe][NMeI]S(tBu)[NMeL])) | 0.54 10^-6 cm/sec |

---

# Protocol text: Metabolic stability test: liver microsomal stability assay
# Assay type: in vitro ADME, mouse
# Conditions: male, pH 7.4; mouse liver microsomes 0.5 mg protein/mL, compound 1 µM, presence of NADPH; read-out: Mouse Hepatic Microsome CLh,int NADPH(+)
Starred links: 1 amine or outer side, 2 acyl side, 3 side chain; linkers in the order of their positions; H or OH if unused. Positions of bridges follow the written chain, without caps; N, C: chain ends. Non-standard residues stand in square brackets, D forms with d. Residues, ends and D or L forms follow the SMILES beside them. *: point of attachment. NMedβ3hAla = C[C@H](CC(=O)[*:2])N(C)[*:1]; NMeF = CN[C@@H](Cc1ccccc1)C(=O)O; NMeGABA = CN(CCCC(=O)[*:2])[*:1]; NMeT = CN[C@H](C(=O)O)[C@@H](C)O; hPhe = N[C@@H](CCc1ccccc1)C(=O)O; NMeD = CN[C@@H](CC(=O)O)C(=O)O; NMeL = CN[C@@H](CC(C)C)C(=O)O; NMeV = CN[C@H](C(=O)O)C(C)C; NMeAbu = CC[C@H](NC)C(=O)O; NMeA = CN[C@@H](C)C(=O)O; Piperidide = C1CCN(*)CC1; Abu = CC[C@H](N)C(=O)O; NBuGly = CCCCNCC(=O)O; Sar = CNCC(=O)O; tBu = CC(C)(C)*
Property name: microsomal CLint at 1 µM (µL/min/mg)

| Compound | Measured number |
| --- | --- |
| CC[C@H](C)[C@@H]1NC(=O)[C@H](CC(C)C)N(C)C(=O)CN(C)C(=O)C[C@@H](C(=O)N2CCCCC2)N(C)C(=O)CNC(=O)[C@H](C)N(C)C(=O)[C@H](CC)N(C)C(=O)[C@H](C(C)C)N(C)C(=O)[C@H](C)N(C)C(=O)[C@H](Cc2ccccc2)N(C)C(=O)[C@H](CC(C)C)NC(=O)[C@H](Cc2ccccc2)N(C)C(=O)[C@H](C(C)C)NC(=O)[C@H](CC(C)C)N(C)C1=O [pd085] ([Sar][NMeL]I[NMeL]V[NMeF]L[NMeF][NMeA][NMeV][NMeAbu][NMeA]G[NMeD]-Piperidide; lactam N-14) | 26.9 |
| CC[C@H](C)[C@@H]1NC(=O)[C@H](C)N(C)C(=O)[C@H]([C@@H](C)O)NC(=O)[C@H](CC(C)C)N(C)C(=O)[C@H](COC(C)(C)C)NC(=O)[C@H](Cc2ccccc2)N(C)C(=O)[C@H]([C@@H](C)CC)NC(=O)CNC(=O)[C@H](Cc2ccccc2)N(C)C(=O)[C@H](CC(C)C)N(C)C(=O)CCCN(C)C(=O)C[C@@H](C)N(C)C(=O)[C@H](CC(C)C)NC1=O [pd145] (cyclo(GI[NMeF]S(tBu)[NMeL]T[NMeA]IL[NMedβ3hAla][NMeGABA][NMeL][NMeF])) | 35.5 |
| CC[C@@H]1NC(=O)[C@H](Cc2ccccc2)N(C)C(=O)[C@@H]2CCCN2C(=O)[C@H](CC(C)C)N(C)C(=O)[C@H](C(C)C)NC(=O)[C@H](CC(C)C)N(C)C(=O)[C@H]([C@@H](C)O)NC(=O)[C@H](Cc2ccccc2)N(C)C(=O)CN(C)C(=O)C[C@@H](C)N(C)C(=O)[C@H](C(C)C)NC(=O)[C@H](CC)N(C)C(=O)[C@H](C)N(C)C1=O [pd149] (cyclo([Abu][NMeA][NMeAbu]V[NMedβ3hAla][Sar][NMeF]T[NMeL]V[NMeL]P[NMeF])) | 10.8 |
| CCCCN1CC(=O)N(C)[C@@H](CC)C(=O)N[C@H](C(=O)N2CCCCC2)CC(=O)N(C)[C@@H](C)C(=O)N[C@@H]([C@@H](C)CC)C(=O)N(C)[C@@H](Cc2ccccc2)C(=O)N(C)[C@@H](CC(C)C)C(=O)N[C@@H](C(C)C)C(=O)N(C)CC(=O)N[C@@H](CC(C)C)C(=O)N(C)[C@@H](Cc2ccccc2)C(=O)N(C)[C@@H](C)C(=O)N[C@@H](CC(C)C)C1=O [pd099] ([NMeA]I[NMeF][NMeL]V[Sar]L[NMeF][NMeA]L[NBuGly][NMeAbu]D-Piperidide; lactam N-13) | 30.3 |
| CC[C@@H]1NC(=O)[C@H](C)N(C)C(=O)[C@H](CC(C)C)N(C)C(=O)[C@H]([C@@H](C)O)N(C)C(=O)[C@H](CC(C)C)N(C)C(=O)[C@H](C)NC(=O)[C@H](Cc2ccccc2)N(C)C(=O)CN(C)C(=O)C[C@@H](C(=O)N2CCCCC2)NC(=O)[C@H](C(C)C)N(C)C(=O)[C@H](C)NC(=O)[C@@H]2CCCN2C(=O)[C@H](C(C)C)NC(=O)[C@H](Cc2ccccc2)N(C)C1=O [pd046] ([Sar][NMeF]A[NMeL][NMeT][NMeL][NMeA][Abu][NMeF]VPA[NMeV]D-Piperidide; lactam N-14) | 6.2 |
| CC[C@@H]1NC(=O)[C@H](CC(C)C)N(C)C(=O)[C@H](C)NC(=O)[C@@H]2CCCN2C(=O)[C@H]([C@@H](C)CC)NC(=O)[C@H](CC(C)C)N(C)C(=O)[C@H](CCc2ccccc2)NC(=O)CCCN(C)C(=O)C[C@@H](C(=O)N2CCCCC2)NC(=O)[C@H](CC(C)C)N(C)C(=O)[C@H]([C@@H](C)CC)NC(=O)[C@H](C)N(C)C(=O)[C@H]([C@@H](C)O)NC(=O)[C@H](Cc2ccccc2)N(C)C1=O [pd023] ([NMeGABA][hPhe][NMeL]IPA[NMeL][Abu][NMeF]T[NMeA]I[NMeL]D-Piperidide; lactam N-14) | 43.3 |
| CC[C@H](C)[C@@H]1NC(=O)[C@H](COC(C)(C)C)NC(=O)[C@H]([C@@H](C)O)NC(=O)[C@H](Cc2ccccc2)N(C)C(=O)[C@H](C)N(C)C(=O)[C@H](CC(C)C)N(C)C(=O)[C@H](CCc2ccccc2)NC(=O)[C@@H]2CCCN2C(=O)[C@H]([C@@H](C)CC)NC(=O)[C@H](CC(C)C)N(C)C(=O)[C@H](C)NC(=O)CCCN(C)C(=O)C[C@@H](C(=O)N2CCCCC2)NC(=O)[C@H](CC(C)C)N(C)C1=O [pd022] ([NMeGABA]A[NMeL]IP[hPhe][NMeL][NMeA][NMeF]TS(tBu)I[NMeL]D-Piperidide; lactam N-14) | 44.4 |
| CC[C@@H]1NC(=O)[C@H](C(C)C)N(C)C(=O)[C@H](C)N(C)C(=O)[C@H](Cc2ccccc2)N(C)C(=O)[C@H](CC(C)C)NC(=O)[C@H](Cc2ccccc2)N(C)C(=O)[C@H](C(C)C)NC(=O)[C@H](CC(C)C)N(C)C(=O)[C@H]([C@@H](C)CC)NC(=O)[C@H](CC(C)C)N(C)C(=O)CN(C)C(=O)C[C@@H](C(=O)N2CCCCC2)N(C)C(=O)CNC(=O)[C@H](C)N(C)C1=O [pd080] ([Sar][NMeL]I[NMeL]V[NMeF]L[NMeF][NMeA][NMeV][Abu][NMeA]G[NMeD]-Piperidide; lactam N-14) | 29.3 |
